test system: NIH3T3; assay: MTT cytotoxicity assay (Example 1); assay type: cell-based, mouse; conditions: 72 h
pIC50: −log10 of the molar value.
Listed here are molecules together with their documented pIC50.

Smiles data: COC(=O)/C=C1/N=C(Nc2nc3cc(C)ccc3o2)NC1=O
Comparator: =
pIC50: 5.22
--
Smiles data: O=C(O)c1cc(-c2ccc(/C=N/Nc3nc4nonc4nc3Nc3ccccc3F)o2)ccc1Cl
Comparator: <
pIC50: 5.00
--
Smiles data: Oc1ccc(Br)cc1/C=N/Nc1nc2nonc2nc1Nc1ccc(F)cc1
Comparator: =
pIC50: 5.22

====

test system: HEY; experiment: MTT cytotoxicity assay (Example 1); type: cell-based, human; conditions: Homo sapiens, 72 h
Hi! Could you tag entries with IC50 below 5 µM as true, and those at or above as false? Much appreciated.

Molecule: C1C2CC3CC1CC(C2)C3Nc1nc2nonc2nc1NC1C2CC3CC(C2)CC1C3 (stereo not drawn)
Assay target: HEY
Group label: false
--
Molecule: c1coc(CNc2nc3nonc3nc2NCc2ccco2)c1
Assay target: HEY
Group label: false
--
Molecule: CCCCCCc1nc2ccccc2c(=O)n1NC(=O)c1c(O)c2ccccc2n(CC)c1=O
Assay target: HEY
Group label: false
--
Molecule: CCOc1ccc2nc(NC(=N)/N=C(\C)c3ccccc3C(=O)O)nc(C)c2c1
Assay target: HEY
Group label: false
--
Molecule: C=CCn1c(=O)c(C(=O)Nc2nc(CC(=O)OCC)cs2)c(O)c2ccccc21
Assay target: HEY
Group label: false
--
Molecule: c1cc(N2CCOCC2)ccc1Nc1nc2nonc2nc1Nc1ccc(N2CCOCC2)cc1
Assay target: HEY
Group label: false
--
Molecule: Brc1ccc(/C=N/Nc2nc3nonc3nc2Nc2cccc(Br)c2)cc1
Assay target: HEY
Group label: true
--
Molecule: O=C(O)c1ccccc1Nc1nc2nonc2nc1Nc1ccccc1C(=O)O
Assay target: HEY
Group label: false
--
Molecule: CCCCn1c(=O)c(C(=O)Nc2nnc(C)s2)c(O)c2ccccc21
Assay target: HEY
Group label: false
--
Molecule: COc1ccc(/C=N/Nc2nc3nonc3nc2Nc2ccc(F)cc2)cc1Br
Assay target: HEY
Group label: false
--
Molecule: Cc1ccccc1Nc1nc2nonc2nc1N/N=C/c1cccc2ccccc12
Assay target: HEY
Group label: false
--
Molecule: CCCn1c(=O)c(C(=O)NNC(=O)COc2ccccc2)c(O)c2ccccc21
Assay target: HEY
Group label: false
--
Molecule: CCOC(=O)c1ccc(Nc2nc3nonc3nc2N/N=C/c2cccc3ccccc23)cc1
Assay target: HEY
Group label: true
--
Molecule: COc1cc(/C=N/Nc2nc3nonc3nc2Nc2ccc(Cl)cc2)ccc1O
Assay target: HEY
Group label: true
